# Test system: P. falciparum 3D7 growth, pLDH absorbance
# assay.method.text: blood-stage malaria parasite growth potency – strain 3D7, dose response (AID 2305)
molecules and their reported IC50
measurement.kind: IC50 (nM)

[
  {
    "molecule": "Cc1ccccc1C1CCN(C2CCC(NC(=O)c3cncc(-c4ccccc4)c3)CC2)CC1 (centres undefined)",
    "system.under.test": "P. falciparum 3D7 growth, pLDH absorbance",
    "measurement.kind": "IC50",
    "readout.value": 930
  },
  {
    "molecule": "CC(C)NCc1ccc(-c2cccc(NC(=O)c3cccc(Cl)c3)c2)cc1",
    "system.under.test": "P. falciparum 3D7 growth, pLDH absorbance",
    "measurement.kind": "IC50",
    "readout.value": 730
  },
  {
    "molecule": "CC(C)CN1CCN(c2nc(C#N)c3c(c2C(=S)NC2CCCCC2)CC(C)(C)OC3)CC1",
    "system.under.test": "P. falciparum 3D7 growth, pLDH absorbance",
    "measurement.kind": "IC50",
    "readout.value": 300
  },
  {
    "molecule": "COc1ccc2nc3cc(Cl)ccc3c(Nc3ccc(O)c(CN4CC5CCC(CC5)C4)c3)c2c1",
    "system.under.test": "P. falciparum 3D7 growth, pLDH absorbance",
    "measurement.kind": "IC50",
    "readout.value": 170
  },
  {
    "molecule": "Cc1cccc2[nH]c(-c3cccc(-c4cccc(NC(=O)Nc5ccc(F)c(F)c5F)c4)c3)nc12",
    "system.under.test": "P. falciparum 3D7 growth, pLDH absorbance",
    "measurement.kind": "IC50",
    "readout.value": 110
  },
  {
    "molecule": "CS(=O)(=O)CCNCc1cccc(-c2cc3c(Nc4ccc(OCc5ccccc5)cc4)ncnc3cn2)c1",
    "system.under.test": "P. falciparum 3D7 growth, pLDH absorbance",
    "measurement.kind": "IC50",
    "readout.value": 730
  },
  {
    "molecule": "CN(C)c1ccc(CN2CCC(NC(=O)c3ccc(-c4cccc(Cl)c4)s3)CC2)cc1",
    "system.under.test": "P. falciparum 3D7 growth, pLDH absorbance",
    "measurement.kind": "IC50",
    "readout.value": 920
  },
  {
    "molecule": "COc1ccc2nccc([C@@H](O)CN3CCC(NCc4cc5c(cc4F)SCC(=O)N5)CC3)c2n1",
    "system.under.test": "P. falciparum 3D7 growth, pLDH absorbance",
    "measurement.kind": "IC50",
    "readout.value": 1000
  },
  {
    "molecule": "Fc1ccc2nc(-c3ccc(-c4ccc(CNCc5cnn(-c6ccccc6)n5)cc4)cc3)[nH]c2c1",
    "system.under.test": "P. falciparum 3D7 growth, pLDH absorbance",
    "measurement.kind": "IC50",
    "readout.value": 540
  },
  {
    "molecule": "O=C(Cc1cnc[nH]1)Nc1ccc(-c2ccc(-c3nc4ccccc4[nH]3)s2)cc1",
    "system.under.test": "P. falciparum 3D7 growth, pLDH absorbance",
    "measurement.kind": "IC50",
    "readout.value": 1060
  },
  {
    "molecule": "COc1ccc2c(NN=Cc3ccc(F)cc3)ccnc2c1",
    "system.under.test": "P. falciparum 3D7 growth, pLDH absorbance",
    "measurement.kind": "IC50",
    "readout.value": 440
  },
  {
    "molecule": "NC1=NC(Cc2ccccc2)(c2ccncc2)C(=O)N1CCCc1ccccc1 (centres undefined)",
    "system.under.test": "P. falciparum 3D7 growth, pLDH absorbance",
    "measurement.kind": "IC50",
    "readout.value": 940
  },
  {
    "molecule": "NC(N)=NCCCN(Cc1ccccc1)c1ccccc1",
    "system.under.test": "P. falciparum 3D7 growth, pLDH absorbance",
    "measurement.kind": "IC50",
    "readout.value": 580
  },
  {
    "molecule": "CCCCc1ccc2[nH]cc(C3=CCN(C)CC3)c2c1Br",
    "system.under.test": "P. falciparum 3D7 growth, pLDH absorbance",
    "measurement.kind": "IC50",
    "readout.value": 630
  },
  {
    "molecule": "CN(C)c1ccc(-c2ccc(C(=O)NC3CCN(Cc4ccccc4F)CC3)s2)cc1",
    "system.under.test": "P. falciparum 3D7 growth, pLDH absorbance",
    "measurement.kind": "IC50",
    "readout.value": 1400
  },
  {
    "molecule": "Nc1c(Cl)cc(C(O)CNCCCCCOCCc2ccc3ccccc3n2)cc1Cl (centres undefined)",
    "system.under.test": "P. falciparum 3D7 growth, pLDH absorbance",
    "measurement.kind": "IC50",
    "readout.value": 1020
  },
  {
    "molecule": "CC(C)n1ncc2c(C(=O)N3CCCCCC3)cc(-c3ccccc3)nc21",
    "system.under.test": "P. falciparum 3D7 growth, pLDH absorbance",
    "measurement.kind": "IC50",
    "readout.value": 790
  },
  {
    "molecule": "NC(=NCCCCCCCCN=C(N)Nc1ccc(Cl)cc1)Nc1ccc(Cl)cc1",
    "system.under.test": "P. falciparum 3D7 growth, pLDH absorbance",
    "measurement.kind": "IC50",
    "readout.value": 590
  },
  {
    "molecule": "CC(CN(C)C)C(=O)Nc1cccc(-c2ccc(-c3nc4ccccc4[nH]3)s2)c1 (centres undefined)",
    "system.under.test": "P. falciparum 3D7 growth, pLDH absorbance",
    "measurement.kind": "IC50",
    "readout.value": 740
  },
  {
    "molecule": "CC(C)(CNC(=O)/C=C/c1ccc(Cl)c(Cl)c1)CNc1cc(=O)c2ccccc2[nH]1",
    "system.under.test": "P. falciparum 3D7 growth, pLDH absorbance",
    "measurement.kind": "IC50",
    "readout.value": 860
  },
  {
    "molecule": "C[C@@H](Oc1cc(-n2cnc3cc(SCCN4CCN(C)CC4)ccc32)sc1C(N)=O)c1ccccc1Cl",
    "system.under.test": "P. falciparum 3D7 growth, pLDH absorbance",
    "measurement.kind": "IC50",
    "readout.value": 510
  },
  {
    "molecule": "COc1cc2nc(NCC3CCCCC3)nc(NCc3ccccc3)c2cc1OC",
    "system.under.test": "P. falciparum 3D7 growth, pLDH absorbance",
    "measurement.kind": "IC50",
    "readout.value": 140
  },
  {
    "molecule": "c1ccc(-c2cc3cccc(-c4nc5ccncc5[nH]4)c3o2)cc1",
    "system.under.test": "P. falciparum 3D7 growth, pLDH absorbance",
    "measurement.kind": "IC50",
    "readout.value": 110
  },
  {
    "molecule": "COc1cccc(CN2CCCC(OC(c3ccc(F)cc3)c3ccc(F)cc3)C2)c1O (centres undefined)",
    "system.under.test": "P. falciparum 3D7 growth, pLDH absorbance",
    "measurement.kind": "IC50",
    "readout.value": 790
  },
  {
    "molecule": "COc1cc(C(=O)N2CCOC(CCN3CCC(Cc4ccc(F)cc4)CC3)(c3ccc(Cl)c(Cl)c3)C2)cc(OC)c1OC (centres undefined)",
    "system.under.test": "P. falciparum 3D7 growth, pLDH absorbance",
    "measurement.kind": "IC50",
    "readout.value": 900
  },
  {
    "molecule": "O=[N+]([O-])c1nc(Br)n(Cc2ccc(Cl)cc2)n1",
    "system.under.test": "P. falciparum 3D7 growth, pLDH absorbance",
    "measurement.kind": "IC50",
    "readout.value": 360
  },
  {
    "molecule": "Cc1cc(OCCCN2CCC(NS(=O)(=O)c3ccc(Cl)c(Cl)c3)C2)c2ccccc2n1 (centres undefined)",
    "system.under.test": "P. falciparum 3D7 growth, pLDH absorbance",
    "measurement.kind": "IC50",
    "readout.value": 1050
  },
  {
    "molecule": "COc1ccccc1N(C)CCNc1cc(C)nc(Nc2ccccc2)n1",
    "system.under.test": "P. falciparum 3D7 growth, pLDH absorbance",
    "measurement.kind": "IC50",
    "readout.value": 1070
  },
  {
    "molecule": "N#Cc1ccc(N2CCN(Cc3cccc(-c4ccc(-c5nc6ccccc6[nH]5)cc4)c3)CC2)nc1",
    "system.under.test": "P. falciparum 3D7 growth, pLDH absorbance",
    "measurement.kind": "IC50",
    "readout.value": 1240
  },
  {
    "molecule": "CCOC(=O)C(NC(=O)Cc1ccccc1)C(C)C (centres undefined)",
    "system.under.test": "P. falciparum 3D7 growth, pLDH absorbance",
    "measurement.kind": "IC50",
    "readout.value": 290
  },
  {
    "molecule": "Cc1ccnc(NC(c2ccc(Cl)c([N+](=O)[O-])c2)c2ccc3cccnc3c2O)c1 (centres undefined)",
    "system.under.test": "P. falciparum 3D7 growth, pLDH absorbance",
    "measurement.kind": "IC50",
    "readout.value": 930
  },
  {
    "molecule": "O=S(=O)(c1ccc(Oc2ccccc2)cc1)N(CCC(O)(C(F)(F)F)C(F)(F)F)Cc1cccc(O)c1",
    "system.under.test": "P. falciparum 3D7 growth, pLDH absorbance",
    "measurement.kind": "IC50",
    "readout.value": 490
  },
  {
    "molecule": "CCOc1ccc(S(=O)(=O)N(C)c2ccc(OCC(=O)Nc3nccs3)cc2)cc1",
    "system.under.test": "P. falciparum 3D7 growth, pLDH absorbance",
    "measurement.kind": "IC50",
    "readout.value": 960
  },
  {
    "molecule": "O=C(Nc1ccc(F)cc1)NC1CCN(c2ccnc3cc(Cl)ccc23)CC1",
    "system.under.test": "P. falciparum 3D7 growth, pLDH absorbance",
    "measurement.kind": "IC50",
    "readout.value": 410
  },
  {
    "molecule": "CC12CCC(C(=O)N(CC(O)Cn3c4ccc(Cl)cc4c4cc(Cl)ccc43)C1=O)C2(C)C (centres undefined)",
    "system.under.test": "P. falciparum 3D7 growth, pLDH absorbance",
    "measurement.kind": "IC50",
    "readout.value": 840
  },
  {
    "molecule": "CC[C@H](C)CNC(=O)c1ccc(-c2cccc(CN3CCC(N4CCCC4)CC3)c2)nc1",
    "system.under.test": "P. falciparum 3D7 growth, pLDH absorbance",
    "measurement.kind": "IC50",
    "readout.value": 790
  },
  {
    "molecule": "O=C(Nc1ccc(-c2nc3ccccc3[nH]2)cc1)c1cccc([N+](=O)[O-])c1",
    "system.under.test": "P. falciparum 3D7 growth, pLDH absorbance",
    "measurement.kind": "IC50",
    "readout.value": 220
  },
  {
    "molecule": "O=C(C=Cc1ccccc1)Nc1ccc(C#CC=Cc2ccc(NC(=O)C=Cc3ccccc3)cc2)cc1",
    "system.under.test": "P. falciparum 3D7 growth, pLDH absorbance",
    "measurement.kind": "IC50",
    "readout.value": 850
  },
  {
    "molecule": "CCNc1cc(C(=O)N[C@@H](Cc2ccccc2)[C@H](O)CNCCCc2ccc(OC)cc2)cc(N2CCCC2=O)c1",
    "system.under.test": "P. falciparum 3D7 growth, pLDH absorbance",
    "measurement.kind": "IC50",
    "readout.value": 560
  }
]
